List of MIC values.
Test system: S. aureus UC-76
Assay: Antibacterial assay (Test A), standard microtitration, MIC
Assay type: cell-based
Conditions: Staphylococcus aureus, UC76; Gram Positive Bacteria; strain UC-76; read-out: Minimum Inhibitory Concentrations S. aureus UC-76
Answer format: numeric, µg/mL implied, no suffix.

Compound	MIC (µg/mL)
Nn1c(=O)c2cc(F)c(N3CC(O)(C4CC4)C3)c(Cl)c2n(C2CC2)c1=O [drawing 126]	0.03
Cc1c(N2CC(O)C2)c(F)cc2c(=O)n(N)c(=O)n(C3CC3)c12 [drawing 124]	1
Cc1c(N2CC(CCO)C2)c(F)cc2c(=O)n(N)c(=O)n(C3CC3)c12 [drawing 125]	4
Nn1c(=O)c2cc(F)c(N3CC(O)(c4ccc(F)cc4)C3)c(Cl)c2n(C2CC2)c1=O [drawing 127]	4
CC(C)C1(O)CN(c2c(F)cc3c(=O)n(N)c(=O)n(C4CC4)c3c2Cl)C1 [drawing 128]	16

Would you kindly look at the next entry?
Measured MIC, Nc1nc(-n2c(=O)n(N)c(=O)c3cc(F)c(N4CC(O)C4)c(Cl)c32)c(F)cc1F [drawing 123] : 4

Where do these numbers come from? They come from patent US20050096308A1.
